biological target: NR2F6 (Homo sapiens, UniProt P10588); construct: expressed in transfected cells; also transient transfection; test: NR2F6 agonist screening, Firefly signal cmpd/DMSO; type: cell-based; details: F4; 1% FBS; 2 uM
Sequence (P10588 whole entry): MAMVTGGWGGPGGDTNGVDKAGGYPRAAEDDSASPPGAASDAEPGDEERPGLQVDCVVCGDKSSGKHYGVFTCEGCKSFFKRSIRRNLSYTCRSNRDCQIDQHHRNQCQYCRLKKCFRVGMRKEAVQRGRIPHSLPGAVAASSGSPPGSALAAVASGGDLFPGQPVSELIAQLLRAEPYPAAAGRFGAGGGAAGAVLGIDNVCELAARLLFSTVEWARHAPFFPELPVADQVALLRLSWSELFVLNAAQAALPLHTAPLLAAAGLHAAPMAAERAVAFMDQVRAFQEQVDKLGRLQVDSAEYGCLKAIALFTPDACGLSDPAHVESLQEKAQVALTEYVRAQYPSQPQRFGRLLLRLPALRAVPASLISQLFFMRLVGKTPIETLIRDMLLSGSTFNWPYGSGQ
Quantity measured: Firefly, F4, 1% FBS, cmpd/DMSO (mean)
Answer with a bare number; do not write a unit.

Ask: Please tell me: Firefly, F4, 1% FBS, cmpd/DMSO (mean) of O=S1(=O)C[C@H](NCc2ccco2)[C@@H](S(=O)(=O)c2cccs2)C1 [Compound D135] , system NR2F6 (Homo sapiens, UniProt P10588)?
Result: 1.6

Ask: Recall the recorded Firefly, F4, 1% FBS, cmpd/DMSO (mean) for CCCCN(C)[C@H]1CS(=O)(=O)C[C@@H]1S(=O)(=O)c1ccc(Cl)cc1 [Compound D132] with NR2F6 (Homo sapiens, UniProt P10588) and state it.
Result: 1.3

Ask: Quick check: Firefly, F4, 1% FBS, cmpd/DMSO (mean) on NR2F6 (Homo sapiens, UniProt P10588), item COCCCN[C@H]1CS(=O)(=O)C[C@@H]1S(=O)(=O)c1ccc(Cl)cc1 [Compound D126] ?
Result: 1.5

Ask: Value wanted: Firefly, F4, 1% FBS, cmpd/DMSO (mean) (NR2F6 (Homo sapiens, UniProt P10588)) of entry CC(=O)Nc1ccc(S(=O)(=O)[C@H]2CS(=O)(=O)C[C@@H]2NC2CC2)cc1 [Compound D133]
Result: 0.8

Ask: Record lookup: for NR2F6 (Homo sapiens, UniProt P10588), what Firefly, F4, 1% FBS, cmpd/DMSO (mean) belongs to Cc1cc(S(=O)(=O)[C@H]2CS(=O)(=O)C[C@@H]2NCC2CCCO2)ccc1F (stereo partly shown) [Compound D115] ?
Result: 0.8

Ask: Form field: Firefly, F4, 1% FBS, cmpd/DMSO (mean) recorded for CC(C)CCN[C@H]1CS(=O)(=O)C[C@@H]1S(=O)(=O)c1cccs1 [Compound D110] with NR2F6 (Homo sapiens, UniProt P10588) (enter value)
Result: 1.4

Ask: // fetch NR2F6 (Homo sapiens, UniProt P10588) Firefly, F4, 1% FBS, cmpd/DMSO (mean) for CC(C)CN[C@H]1CS(=O)(=O)C[C@@H]1S(=O)(=O)c1ccc(Cl)cc1 [Compound D120]
Result: 1.2

Ask: Kindly state the measured Firefly, F4, 1% FBS, cmpd/DMSO (mean) obtained for COc1ccc(CCN[C@H]2CS(=O)(=O)C[C@@H]2S(=O)(=O)c2ccc(Cl)cc2)cc1OC [Compound D129] with NR2F6 (Homo sapiens, UniProt P10588).
Result: 1.1

Ask: Return Firefly, F4, 1% FBS, cmpd/DMSO (mean) measured with NR2F6 (Homo sapiens, UniProt P10588) given this compound: O=S1(=O)C[C@H](NCCc2cccs2)[C@@H](S(=O)(=O)c2ccc(Cl)cc2)C1 [Compound D128]
Result: 1.5

Ask: # value lookup — system NR2F6 (Homo sapiens, UniProt P10588), readout Firefly, F4, 1% FBS, cmpd/DMSO (mean), item CCC(C)N[C@H]1CS(=O)(=O)C[C@@H]1S(=O)(=O)c1ccc(C)cc1 (stereo partly shown) [Compound D113]
Result: 1.1

Ask: Item: CCCN[C@H]1CS(=O)(=O)C[C@@H]1S(=O)(=O)c1ccc(Cl)cc1 [Compound D117] Test system: NR2F6 (Homo sapiens, UniProt P10588) Read-out: Firefly, F4, 1% FBS, cmpd/DMSO (mean) Value: ?
Result: 2.1

Ask: Checklist item: Firefly, F4, 1% FBS, cmpd/DMSO (mean) tested on NR2F6 (Homo sapiens, UniProt P10588), entry O=S1(=O)C[C@H](NCc2ccncc2)[C@@H](S(=O)(=O)c2cccs2)C1 [Compound D108] , value?
Result: 1.1

Ask: What is its Firefly, F4, 1% FBS, cmpd/DMSO (mean) for NR2F6 (Homo sapiens, UniProt P10588)? Entry: COCCN[C@H]1CS(=O)(=O)C[C@@H]1S(=O)(=O)c1cccs1 [Compound D107]
Result: 0.8

Ask: Value wanted: Firefly, F4, 1% FBS, cmpd/DMSO (mean) (NR2F6 (Homo sapiens, UniProt P10588)) of entry O=S1(=O)C[C@H](NC2CCCCC2)[C@@H](S(=O)(=O)c2ccccc2)C1 [Compound D111]
Result: 1.1

Ask: Notebook: pull reported Firefly, F4, 1% FBS, cmpd/DMSO (mean) for NR2F6 (Homo sapiens, UniProt P10588), entry CC(C)OCCCN[C@H]1CS(=O)(=O)C[C@@H]1S(=O)(=O)c1ccc(Cl)cc1 [Compound D138]
Result: 1.9

Ask: For NR2F6 (Homo sapiens, UniProt P10588), provide Firefly, F4, 1% FBS, cmpd/DMSO (mean) of O=S1(=O)C[C@H](NCCCc2ccccc2)[C@@H](S(=O)(=O)c2ccc(Cl)cc2)C1 [Compound D137] please.
Result: 2.2

---

system: HEK293 pGL4; assay: Firefly_pGL signal, cmpd/DMSO (pGL4 control cells); format: cell-based; conditions: Homo sapiens, HEK293, pGL4; 1% FBS; 40 uM; read-out: Firefly, pGL4, 1% FBS, cmpd/DMSO (mean)
Quantity measured: fold induction at 40 µM

Ask: What value of fold induction at 40 µM has been reported for the following molecule? O=S1(=O)C[C@H](NCc2ccncc2)[C@@H](S(=O)(=O)c2cccs2)C1
Result: 1.1

Ask: Any idea what fold induction at 40 µM was measured for CCCCN[C@H]1CS(=O)(=O)C[C@@H]1S(=O)(=O)c1ccc(Cl)cc1 ?
Result: 0.7

Ask: Looking for the measured fold induction at 40 µM of CCC(C)N[C@H]1CS(=O)(=O)C[C@@H]1S(=O)(=O)c1ccc(Cl)cc1 (some centres unmarked) , can you help?
Result: 0.8

Ask: Name the recorded fold induction at 40 µM for COCCN[C@H]1CS(=O)(=O)C[C@@H]1S(=O)(=O)c1cccs1 .
Result: 1.4

Ask: // query fold induction at 40 µM value for entry CC(C)N[C@H]1CS(=O)(=O)C[C@@H]1S(=O)(=O)c1ccc(Cl)cc1
Result: 0.9

Ask: Which value of fold induction at 40 µM has been reported for CC(C)CCN[C@H]1CS(=O)(=O)C[C@@H]1S(=O)(=O)c1ccc(Cl)cc1 in the records?
Result: 0.9

Ask: Reported fold induction at 40 µM for C[C@@H]1C[C@H](C)CN([C@H]2CS(=O)(=O)C[C@@H]2S(=O)(=O)c2ccccc2)C1 : what is it?
Result: 1.2

Ask: Which fold induction at 40 µM reading was recorded for the molecule O=S1(=O)C[C@H](NCc2ccco2)[C@@H](S(=O)(=O)c2cccs2)C1 ?
Result: 1.1

---

target: NR2F6 (Homo sapiens, UniProt P10588); construct: expressed in transfected cells; also transient transfection; assay: NR2F6 agonist screening, Firefly signal cmpd/DMSO; format: cell-based; settings: Table 12; ratio Firefly/Renilla, NR2F6 stable clone F4
Quantity measured: Firefly/Renilla (NR2F6 stable, clone F4)
Form: value (number only, do not type unit).

Ask: Which value of Firefly/Renilla (NR2F6 stable, clone F4) has been reported for O=c1oc2ccccc2cc1S(=O)(=O)c1ccc(Br)cc1 in the records?
Result: 2.4

Ask: Please give the measured Firefly/Renilla (NR2F6 stable, clone F4) for this compound: O=c1oc2ccc(F)cc2cc1S(=O)(=O)c1ccc(Cl)cc1
Result: 1.7

Ask: Which value of Firefly/Renilla (NR2F6 stable, clone F4) has been reported for COc1ccc(S(=O)(=O)c2cc3cc(Cl)ccc3oc2=O)cc1OC in the records?
Result: 2.0

Ask: Query: Firefly/Renilla (NR2F6 stable, clone F4); subject: Cc1ccc(S(=O)(=O)c2cc3cc(C(=O)Nc4cccc(C)c4C)ccc3oc2=O)cc1
Result: 1.8

Ask: I'd like to know its Firefly/Renilla (NR2F6 stable, clone F4). The compound in question is COC(=O)c1ccc2oc(=O)c(S(=O)(=O)c3ccc(OC)cc3)cc2c1
Result: 2.6

---

Would you kindly list Firefly, F4, 1% FBS, cmpd/DMSO (mean) for each of these molecules?
target: NR2F6 (Homo sapiens, UniProt P10588); construct: expressed in transfected cells; also transient transfection; assay: NR2F6 agonist screening, Firefly signal cmpd/DMSO; assay type: cell-based; conditions: F4; 1% FBS; 40 uM
Reply briefly: the number, and no unit.

Ask: Using the record for O=S1(=O)C[C@H](NCCCc2ccccc2)[C@@H](S(=O)(=O)c2ccc(Cl)cc2)C1 , report its Firefly, F4, 1% FBS, cmpd/DMSO (mean).
Result: 3.4

Ask: // query Firefly, F4, 1% FBS, cmpd/DMSO (mean) value for entry CCCCN(C)[C@H]1CS(=O)(=O)C[C@@H]1S(=O)(=O)c1ccc(Cl)cc1
Result: 0.5

Ask: Given the entry C[C@@H]1C[C@H](C)CN([C@H]2CS(=O)(=O)C[C@@H]2S(=O)(=O)c2cccs2)C1 , report its measured Firefly, F4, 1% FBS, cmpd/DMSO (mean).
Result: 0.2

Ask: Entry CC(C)CCN[C@H]1CS(=O)(=O)C[C@@H]1S(=O)(=O)c1cccs1 has what Firefly, F4, 1% FBS, cmpd/DMSO (mean)?
Result: 0.8

Ask: Give its Firefly, F4, 1% FBS, cmpd/DMSO (mean) value. Item: O=S1(=O)C[C@H](NCc2ccncc2)[C@@H](S(=O)(=O)c2cccs2)C1
Result: 1.8

Ask: Requested field: Firefly, F4, 1% FBS, cmpd/DMSO (mean). Item: CCCCN[C@H]1CS(=O)(=O)C[C@@H]1S(=O)(=O)c1ccc(Cl)cc1
Result: 0.2

Ask: Requested read-out: Firefly, F4, 1% FBS, cmpd/DMSO (mean). Entry: O=S1(=O)C[C@H](N2CCCCC2)[C@@H](S(=O)(=O)c2cccs2)C1
Result: 0.3

Ask: # input molecule: CCCN[C@H]1CS(=O)(=O)C[C@@H]1S(=O)(=O)c1ccc(Cl)cc1 ; wanted: its Firefly, F4, 1% FBS, cmpd/DMSO (mean)
Result: 0.1

Ask: Which measured Firefly, F4, 1% FBS, cmpd/DMSO (mean) value corresponds to O=S1(=O)C[C@H](NC2CCCC2)[C@@H](S(=O)(=O)c2ccc(F)cc2)C1 ?
Result: 2.2

Ask: Recorded Firefly, F4, 1% FBS, cmpd/DMSO (mean) for COCCN[C@H]1CS(=O)(=O)C[C@@H]1S(=O)(=O)c1cccs1 , please?
Result: 3.8

Ask: Item CCC(C)N[C@H]1CS(=O)(=O)C[C@@H]1S(=O)(=O)c1ccc(C)cc1 (stereo partly drawn) has what recorded Firefly, F4, 1% FBS, cmpd/DMSO (mean)?
Result: 2.5

Ask: # query: Firefly, F4, 1% FBS, cmpd/DMSO (mean) of entry CC(C)CN[C@H]1CS(=O)(=O)C[C@@H]1S(=O)(=O)c1ccc(Cl)cc1
Result: 0.2

Ask: Consider the molecule shown here: O=S1(=O)C[C@H](NCC2CCCO2)[C@@H](S(=O)(=O)c2cccs2)C1 (stereo partly drawn) What is its recorded Firefly, F4, 1% FBS, cmpd/DMSO (mean)?
Result: 5.4

Ask: Bench note: what Firefly, F4, 1% FBS, cmpd/DMSO (mean) did CC1CCN([C@H]2CS(=O)(=O)C[C@@H]2S(=O)(=O)c2cccs2)CC1 show?
Result: 0.5

Ask: # Firefly, F4, 1% FBS, cmpd/DMSO (mean) lookup, item CC(C)N[C@H]1CS(=O)(=O)C[C@@H]1S(=O)(=O)c1ccc(Cl)cc1
Result: 0.5

Origin of values: patent US11377442B2
